Molecular target: hsMetAP-II (Homo sapiens)
Sequence (P50579 whole entry): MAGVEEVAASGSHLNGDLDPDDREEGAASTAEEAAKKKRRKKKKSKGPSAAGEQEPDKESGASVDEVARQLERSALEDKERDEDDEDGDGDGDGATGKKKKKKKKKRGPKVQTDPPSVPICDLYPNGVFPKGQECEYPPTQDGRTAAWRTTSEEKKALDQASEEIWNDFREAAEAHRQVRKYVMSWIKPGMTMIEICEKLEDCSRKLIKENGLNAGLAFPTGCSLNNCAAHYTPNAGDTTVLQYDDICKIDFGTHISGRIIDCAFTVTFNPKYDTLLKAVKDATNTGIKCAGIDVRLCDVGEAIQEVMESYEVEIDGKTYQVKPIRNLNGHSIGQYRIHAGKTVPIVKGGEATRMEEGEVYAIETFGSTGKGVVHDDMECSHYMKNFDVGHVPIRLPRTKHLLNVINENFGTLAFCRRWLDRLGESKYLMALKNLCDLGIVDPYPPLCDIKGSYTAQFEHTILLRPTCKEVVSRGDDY
Experiment: MetAP inhibitory activity, Met-Gly-Met-Met substrate, HPLC detection of Gly-Met-Met
Type: biochemical, hs
Settings: read-out: hsMetAP-II IC50; enzyme 50 nM, 400 µM Met-Gly-Met-Met, 60 minutes at 37 °C
measured.property: pIC50
# reply with the number alone; pIC50 is -log10 of concentration in mol/L

# return recorded pIC50 for input COc1ccc(Cn2nnc3c2C2(CCC3OC(=O)C=Cc3cc(OC)c(OC)c(OC)c3)CO2)cc1 (racemic)
6.30

###

Target: hsMetAP-II (Homo sapiens)
Test: MetAP inhibitory activity, Met-Gly-Met-Met substrate, HPLC detection of Gly-Met-Met
Type: biochemical, hs
Conditions: read-out: hsMetAP-II % inhibition, single concentration: inhibitor 25 µM, enzyme 50 nM, 60 minutes substrate incubation at 37 °C
measured.property: inhibition at 25 µM (%)
Response body: numeric value in %, unit text excluded.

>>> result_value("O=C(O[C@@H]1CC[C@]2(CO2)c2c1nnn2Cc1ccc2ccccc2c1)c1ccccc1 (racemic) [JL-III-132-C]")
63

# return recorded inhibition at 25 µM for input COc1ccc(Cn2nnc3c2[C@@]2(CC[C@H]3OC(=O)/C=C/c3cc(OC)c(OC)c(OC)c3)CO2)cc1 (racemic) [UWU-II-035-C]
85

# return recorded inhibition at 25 µM for input COc1ccc(Cn2nnc3c2[C@]2(CC[C@H]3OC(=O)c3ccccc3)CO2)cc1 (racemic) [UWU-II-023-A]
98.6

# return recorded inhibition at 25 µM for input O=C(O[C@@H]1CC[C@]2(CO2)c2c1nnn2Cc1ccccc1)c1ccccc1 (racemic) [JL-III-147-A]
93.3

# return recorded inhibition at 25 µM for input COc1ccc(Cn2nnc3c2C2(CCC3OC(=O)NCC(N)=O)CO2)cc1 (stereo not drawn) [UWU-XII-143-A]
100

# return recorded inhibition at 25 µM for input COc1ccc(Cn2nnc3c2C2(CCC3OC(=O)NCC(C)C)CO2)cc1 (racemic) [UWU-XII-142-A]
100

# return recorded inhibition at 25 µM for input CC(C)NC(=O)O[C@@H]1CC[C@@]2(CO2)c2c1nnn2Cc1ccccc1 (racemic) [UWU-XII-128-C]
60

# return recorded inhibition at 25 µM for input O=C(O[C@@H]1CC[C@@]2(CO2)c2c1nnn2Cc1ccccc1)c1ccccc1 (racemic) [JL-III-147-B]
59

# return recorded inhibition at 25 µM for input CC(C)NC(=O)O[C@@H]1CC[C@]2(CO2)c2c1nnn2Cc1ccccc1 (racemic) [UWU-XII-128-A]
100

# return recorded inhibition at 25 µM for input COc1ccc(Cn2nnc3c2C2(CCC3OC(=O)C=Cc3cc(OC)c(OC)c(OC)c3)CO2)cc1 (racemic) [UWU-XII-035-A]
94

# return recorded inhibition at 25 µM for input COc1ccc(Cn2nnc3c2[C@@]2(CC[C@H]3OC(=O)c3ccccc3)CO2)cc1 (racemic) [UWU-XII-023-D]
45

# return recorded inhibition at 25 µM for input CC(C)c1ccc(Cn2nnc3c2[C@]2(CC[C@H]3OC(=O)c3ccccc3)CO2)cc1 (racemic) [UWU-XII-036-A]
59
